TGI listing for selected compounds.
Test system: EKVX NSCLC
protocol_notes: NCI tumour cell line growth inhibition, 48 h
Structures can show the parent of a compound that is named as a salt. Where a SMILES comes first, the peptide text is derived from it. The star is where a group is joined. Tfa = O=C(C(F)(F)F)*
endpoint: TGI

C=CCN1CCC(OC(=O)C(O)(C#CC)C2CCCC2)CC1 (stereo unspecified) :: > 100 µM
O=C(O)CC(NC(=O)C(F)(F)F)C(=O)NC(Cc1ccc(O)cc1)C(=O)O (stereo not drawn) (Tfa-Asp-Tyr-OH; configuration not given here) :: > 50 µM
COc1cc2c(cc1OC)-c1cc3ccccc3c[n+]1CC2 :: > 100 µM
Oc1ccc(-c2csc(NNC3=NC/C(=C/c4ccc5c(c4)OCO5)S3)n2)cc1O :: > 100 µM
C=CC[n+]1c(/C=C/C=C2\N(C)c3ccccc3C2(C)C)sc2ccc(OC)cc21 :: 15.5 µM
COC(=O)[C@@]12C(=O)C=CC(=O)[C@@H]1C1C(=CC2COC(C)=O)O[C@@H]2OC3(CCCCC3)O[C@H]12 (stereo partly specified) :: 32.8 µM
CC(C)(C)OC1=C(OC(C)(C)C)C(O)(c2ccccc2)C1=O (stereo unspecified) :: > 100 µM
Cc1c2cc[n+](C)cc2c(C)c2c1sc1ccccc12 :: > 50.2 µM
CC1CC(C)C(O)C(C2CC(CC(=O)NC3CCCCC3)CC(=O)O2)C1 (stereo unspecified) :: > 100 µM
COC(=O)c1c2c(cc3c1CC1(Cc4cc5c(c(C=O)c4C1)CCCC5)C3)CCCC2 (stereo unspecified) :: > 100 µM
NC1=NC(=O)/C(=C/c2ccccc2[N+](=O)[O-])C(N)=N1 :: > 100 µM
C/C(CC/C(C)=N/O)=N\O :: > 100 µM
CC12CCC3C(CCC4Cc5[nH]c6ccccc6c5CC43C)C1CCC2O (stereo unspecified) :: > 100 µM
CC(NS(=O)(=O)c1ccc([N+](=O)[O-])cc1)C(=O)O (stereo unspecified) :: > 100 µM
NNC(=O)CSc1nc2ccc(I)cc2c(=O)n1Cc1ccccc1 :: 33.2 µM
CC(C)(C)NNC(=O)/C(=C/c1ccc([N+](=O)[O-])cc1)NC(=O)c1ccccc1 :: > 100 µM
O=C1OC[C@@H]2[C@@H](O)CCCCCN12 :: > 100 µM
Cc1cc(N(CCC#N)CCC#N)ccc1/C(N=Nc1ccc(Cl)cc1)=N\NC(=O)c1cc(Cl)ccc1O :: > 100 µM
O=C(O)C/C(=C\c1ccco1)C(=O)O :: > 100 µM
CN1C(=O)CC(c2cccc(C3CC(=O)N(C)C3=O)n2)C1=O (stereo unspecified) :: > 100 µM
CC(C)(C)c1cc(CC2C(=O)c3ccccc3C2=O)cc(C(C)(C)C)c1O :: 28 µM
